# Assay Comment: Tissue distribution in rats after oral administration
# Format: in vivo, male Sprague-Dawley rats
# Test Parameters: male, Sprague-Dawley, rat, liver, PO 25 mg/kg, 1 h, SD NA, read-out: Liver concentration
Measure: concentration at 1 h

Given the entry CC(C)(O)CNC(=O)Cc1nc2cnc3[nH]ccc3c2n1[C@H]1CC[C@H](CC#N)CC1 [Compound of Formula I] , report its measured concentration at 1 h.
70.4 ng/g

###

# Assay Comment: Tissue distribution in mice after oral administration
# Format: in vivo, female C57Bl/6 mice
# Test Parameters: female, C57Bl/6, mouse, plasma, oral 10 mg/kg, 1 h, mean ± SD, read-out: Plasma concentration
Measure: concentration at 1 h (ng/mL)
Supply the numeric figure in ng/mL, leaving out any unit text.

Given the entry CC(C)(O)CNC(=O)Cc1nc2cnc3[nH]ccc3c2n1[C@H]1CC[C@H](CC#N)CC1 , report its measured concentration at 1 h.
2.6

###

# Assay Comment: Tissue distribution in rats after oral administration
# Format: in vivo, male Sprague-Dawley rats
# Test Parameters: male, Sprague-Dawley, rat, jejunum lumen content, PO 25 mg/kg, 0.5 h, average, N = 3, read-out: Jejunum Content concentration
Measure: concentration at 0.5 h (µg/mL)
Supply the numeric figure in µg/mL, leaving out any unit text.

Given the entry CC(C)(O)CNC(=O)Cc1nc2cnc3[nH]ccc3c2n1[C@H]1CC[C@H](CC#N)CC1 [Compound of Formula I] , report its measured concentration at 0.5 h.
533

###

# Assay Comment: Tissue distribution in mice after oral administration
# Type: in vivo, female C57Bl/6 mice
# Test Parameters: female, C57Bl/6, mouse, colon, oral 10 mg/kg, 5 h, mean ± SD, read-out: Colon concentration
Measure: concentration at 5 h

Given the entry CC(C)(O)CNC(=O)Cc1nc2cnc3[nH]ccc3c2n1[C@H]1CC[C@H](CC#N)CC1 , report its measured concentration at 5 h.
8450 ng/g

###

# Assay Comment: Serum and colonic concentrations in IL-12/IL-18 studies S-1 and S-2
# Format: in vivo, C57BL/6 mice
# Test Parameters: C57BL/6, mouse, serum, po, 50 mg/kg, S-2; mice, oral 50 mg/kg; mean±SEM; read-out: Serum 4 h post dosing
# Procedure: C57BL/6 mice (6 to 8 weeks old) were randomized by weight and assigned to various treatment groups for each of two studies. Mice were challenged intraperitoneally with a combination of IL-12 (250 ng) and IL-18 (1 μg). […] Serum levels were measured at 30 minutes and 4 hours (terminal) after dosing. […] Colon drug levels were measured 4 hours after dosing. […] Data are presented as mean±SEM; N=3-7/group. BLOQ, below limit of quantification; min, minutes; h, hour(s). […]
Measure: concentration at 4 h (nM)
Supply the numeric figure in nM, leaving out any unit text.

Given the entry CC(C)(O)CNC(=O)Cc1nc2cnc3[nH]ccc3c2n1[C@H]1CC[C@H](CC#N)CC1 , report its measured concentration at 4 h.
131

###

# Assay Comment: Serum and colonic concentrations in IL-12/IL-18 studies S-1 and S-2
# Format: in vivo, C57BL/6 mice
# Test Parameters: C57BL/6, mouse, colon, po, 25 mg/kg, S-1; mice, oral 25 mg/kg; mean±SEM; read-out: Colon 4 h post dosing
Measure: concentration at 4 h (ng/g)
Supply the numeric figure in ng/g, leaving out any unit text.

Given the entry CC(C)(O)CNC(=O)Cc1nc2cnc3[nH]ccc3c2n1[C@H]1CC[C@H](CC#N)CC1 , report its measured concentration at 4 h.
30800

###

# Assay Comment: Serum and colonic concentrations in IL-12/IL-18 studies S-1 and S-2
# Type: in vivo, C57BL/6 mice
# Test Parameters: C57BL/6, mouse, serum, po, 10 mg/kg, S-2; mice, oral 10 mg/kg; mean±SEM; read-out: Serum 30 min post dosing
Measure: concentration at 30 min

Given the entry CC(C)(O)CNC(=O)Cc1nc2cnc3[nH]ccc3c2n1[C@H]1CC[C@H](CC#N)CC1 , report its measured concentration at 30 min.
7 nM

###

# Assay Comment: Tissue distribution in mice after oral administration
# Format: in vivo, female C57Bl/6 mice
# Test Parameters: female, C57Bl/6, mouse, liver, oral 10 mg/kg, 3 h, mean ± SD, read-out: Liver concentration
# Protocol: Limited tissue (liver, intestine) distribution studies were conducted in female C57Bl/6 mice ([…]) at 0.5, 1, 2, 3, 5, 7, and 24 hours following oral administration of compound of Formula 1 at a dose of 10 mg/kg formulated as a solution in 20% HP-β-CD. […] All tissues (except plasma) were homogenized in sterile water and compound of Formula I concentrations were determined using LC-MS/MS. […]
Measure: concentration at 3 h (ng/g)
Supply the numeric figure in ng/g, leaving out any unit text.

Given the entry CC(C)(O)CNC(=O)Cc1nc2cnc3[nH]ccc3c2n1[C@H]1CC[C@H](CC#N)CC1 , report its measured concentration at 3 h.
23.3

###

# Assay Comment: Tissue distribution in mice after oral administration
# Type: in vivo, female C57Bl/6 mice
# Test Parameters: female, C57Bl/6, mouse, plasma, oral 10 mg/kg, 7 h, mean ± SD, read-out: Plasma concentration
Measure: concentration at 7 h
Please don't drop the unit; write it after the number.

Given the entry CC(C)(O)CNC(=O)Cc1nc2cnc3[nH]ccc3c2n1[C@H]1CC[C@H](CC#N)CC1 , report its measured concentration at 7 h.
6 ng/mL

###

# Assay Comment: Tissue distribution in rats after oral administration
# Format: in vivo, male Sprague-Dawley rats
# Test Parameters: male, Sprague-Dawley, rat, colon lumen content, PO 25 mg/kg, 2 h, average, N = 3, read-out: Colon Content concentration
Measure: concentration at 2 h (ng/mL)
Supply the numeric figure in ng/mL, leaving out any unit text.

Given the entry CC(C)(O)CNC(=O)Cc1nc2cnc3[nH]ccc3c2n1[C@H]1CC[C@H](CC#N)CC1 [Compound of Formula I] , report its measured concentration at 2 h.
19100

###

# Assay Comment: Tissue distribution in rats after oral administration
# Type: in vivo, male Sprague-Dawley rats
# Test Parameters: male, Sprague-Dawley, rat, ileum lumen content, PO 25 mg/kg, 0.5 h, average, N = 3, read-out: Ileum Content concentration
Measure: concentration at 0.5 h (ng/mL)
Supply the numeric figure in ng/mL, leaving out any unit text.

Given the entry CC(C)(O)CNC(=O)Cc1nc2cnc3[nH]ccc3c2n1[C@H]1CC[C@H](CC#N)CC1 , report its measured concentration at 0.5 h.
644

###

# Assay Comment: Tissue distribution in mice after oral administration
# Assay type: in vivo, female C57Bl/6 mice
# Test Parameters: female, C57Bl/6, mouse, liver, oral 10 mg/kg, 5 h, mean ± SD, read-out: Liver concentration
# Description: Limited tissue (liver, intestine) distribution studies were conducted in female C57Bl/6 mice ([…]) at 0.5, 1, 2, 3, 5, 7, and 24 hours following oral administration of compound of Formula 1 at a dose of 10 mg/kg formulated as a solution in 20% HP-β-CD. […] All tissues (except plasma) were homogenized in sterile water and compound of Formula I concentrations were determined using LC-MS/MS. […]
Measure: concentration at 5 h
Please don't drop the unit; write it after the number.

Given the entry CC(C)(O)CNC(=O)Cc1nc2cnc3[nH]ccc3c2n1[C@H]1CC[C@H](CC#N)CC1 , report its measured concentration at 5 h.
16.8 ng/g

###

# Assay Comment: Tissue distribution in rats after oral administration
# Type: in vivo, male Sprague-Dawley rats
# Test Parameters: male, Sprague-Dawley, rat, duodenum tissue, PO 25 mg/kg, 5 h, average, N = 3, read-out: Duod. Tissue concentration
Measure: concentration at 5 h

Given the entry CC(C)(O)CNC(=O)Cc1nc2cnc3[nH]ccc3c2n1[C@H]1CC[C@H](CC#N)CC1 , report its measured concentration at 5 h.
1100 ng/g

###

# System: JAK1/Tyk2 (Homo sapiens, UniProt P23458+P29597)
# Construct: endogenous in cells
# Sequence (P23458 whole entry): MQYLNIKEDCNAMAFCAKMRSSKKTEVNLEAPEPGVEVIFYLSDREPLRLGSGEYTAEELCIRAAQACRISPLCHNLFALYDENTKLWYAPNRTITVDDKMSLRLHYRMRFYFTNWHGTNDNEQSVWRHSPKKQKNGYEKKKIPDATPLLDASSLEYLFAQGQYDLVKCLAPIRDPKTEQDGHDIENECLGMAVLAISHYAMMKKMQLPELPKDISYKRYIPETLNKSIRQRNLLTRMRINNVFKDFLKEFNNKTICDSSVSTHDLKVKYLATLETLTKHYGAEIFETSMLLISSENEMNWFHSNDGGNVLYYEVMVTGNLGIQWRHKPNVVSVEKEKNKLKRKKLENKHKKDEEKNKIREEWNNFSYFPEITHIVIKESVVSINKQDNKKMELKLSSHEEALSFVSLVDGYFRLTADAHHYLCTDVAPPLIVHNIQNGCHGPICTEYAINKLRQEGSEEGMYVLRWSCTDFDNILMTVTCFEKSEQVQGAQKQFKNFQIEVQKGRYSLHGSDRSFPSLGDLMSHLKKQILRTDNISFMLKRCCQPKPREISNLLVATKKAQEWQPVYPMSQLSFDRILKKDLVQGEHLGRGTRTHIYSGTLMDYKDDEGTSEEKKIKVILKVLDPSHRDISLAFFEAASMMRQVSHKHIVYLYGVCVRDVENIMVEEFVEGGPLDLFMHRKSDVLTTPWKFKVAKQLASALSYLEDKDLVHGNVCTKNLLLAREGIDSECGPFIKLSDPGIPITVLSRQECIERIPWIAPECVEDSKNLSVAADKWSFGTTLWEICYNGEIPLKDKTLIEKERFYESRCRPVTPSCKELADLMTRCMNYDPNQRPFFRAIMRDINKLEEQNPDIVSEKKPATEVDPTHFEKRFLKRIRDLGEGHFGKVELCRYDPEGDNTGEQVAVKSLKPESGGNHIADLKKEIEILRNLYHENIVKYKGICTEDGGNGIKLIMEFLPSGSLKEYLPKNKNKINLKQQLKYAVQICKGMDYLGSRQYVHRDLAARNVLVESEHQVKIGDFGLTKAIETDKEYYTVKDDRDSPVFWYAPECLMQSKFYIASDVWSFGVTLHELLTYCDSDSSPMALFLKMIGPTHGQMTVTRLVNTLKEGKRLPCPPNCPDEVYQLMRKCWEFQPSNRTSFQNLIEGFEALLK
# Sequence (P29597 whole entry): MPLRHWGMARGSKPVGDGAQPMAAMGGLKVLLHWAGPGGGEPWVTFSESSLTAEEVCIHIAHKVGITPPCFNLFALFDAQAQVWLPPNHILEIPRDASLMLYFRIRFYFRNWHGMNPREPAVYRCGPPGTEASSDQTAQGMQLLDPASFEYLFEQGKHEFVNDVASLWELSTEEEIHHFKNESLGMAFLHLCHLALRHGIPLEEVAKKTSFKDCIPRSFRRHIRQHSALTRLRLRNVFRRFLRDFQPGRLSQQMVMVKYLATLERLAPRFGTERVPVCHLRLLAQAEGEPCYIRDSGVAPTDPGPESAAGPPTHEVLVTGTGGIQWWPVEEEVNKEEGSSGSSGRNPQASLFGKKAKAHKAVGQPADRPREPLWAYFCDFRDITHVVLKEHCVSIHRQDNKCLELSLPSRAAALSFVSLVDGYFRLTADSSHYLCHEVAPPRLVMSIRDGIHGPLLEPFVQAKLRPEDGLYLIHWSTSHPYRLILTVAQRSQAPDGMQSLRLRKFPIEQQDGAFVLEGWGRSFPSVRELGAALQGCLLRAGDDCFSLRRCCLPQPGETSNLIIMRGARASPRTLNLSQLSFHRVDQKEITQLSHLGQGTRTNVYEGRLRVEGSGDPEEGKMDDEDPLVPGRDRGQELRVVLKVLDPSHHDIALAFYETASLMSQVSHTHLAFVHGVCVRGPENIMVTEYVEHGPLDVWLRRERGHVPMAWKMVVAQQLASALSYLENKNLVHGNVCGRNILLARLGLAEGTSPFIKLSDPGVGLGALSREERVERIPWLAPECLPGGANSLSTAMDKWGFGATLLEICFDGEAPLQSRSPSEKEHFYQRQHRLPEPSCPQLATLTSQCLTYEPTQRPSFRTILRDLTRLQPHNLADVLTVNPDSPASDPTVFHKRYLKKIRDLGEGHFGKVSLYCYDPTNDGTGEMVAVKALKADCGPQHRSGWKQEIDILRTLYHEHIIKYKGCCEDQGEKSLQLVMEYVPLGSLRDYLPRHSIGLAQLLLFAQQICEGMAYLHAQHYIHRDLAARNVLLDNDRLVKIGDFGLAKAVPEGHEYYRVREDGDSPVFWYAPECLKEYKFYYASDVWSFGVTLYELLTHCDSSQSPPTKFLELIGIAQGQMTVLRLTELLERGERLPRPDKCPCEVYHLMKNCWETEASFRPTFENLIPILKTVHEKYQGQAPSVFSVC
# Sequence (P17181 28-557 partner): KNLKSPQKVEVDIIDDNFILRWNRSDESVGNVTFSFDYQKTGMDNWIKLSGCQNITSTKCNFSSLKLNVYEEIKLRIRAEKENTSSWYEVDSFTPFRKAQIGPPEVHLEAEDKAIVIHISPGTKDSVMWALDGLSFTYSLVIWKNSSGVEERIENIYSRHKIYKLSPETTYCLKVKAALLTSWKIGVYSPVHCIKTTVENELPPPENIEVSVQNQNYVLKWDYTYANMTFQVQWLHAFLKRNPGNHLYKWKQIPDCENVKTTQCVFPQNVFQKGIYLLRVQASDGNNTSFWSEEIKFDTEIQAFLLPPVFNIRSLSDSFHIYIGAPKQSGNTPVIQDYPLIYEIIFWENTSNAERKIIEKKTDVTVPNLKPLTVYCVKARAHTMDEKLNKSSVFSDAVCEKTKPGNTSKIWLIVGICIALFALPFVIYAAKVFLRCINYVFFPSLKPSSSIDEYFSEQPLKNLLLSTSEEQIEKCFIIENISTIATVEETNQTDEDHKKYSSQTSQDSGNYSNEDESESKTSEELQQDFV
# Sequence (P48551 27-515 partner): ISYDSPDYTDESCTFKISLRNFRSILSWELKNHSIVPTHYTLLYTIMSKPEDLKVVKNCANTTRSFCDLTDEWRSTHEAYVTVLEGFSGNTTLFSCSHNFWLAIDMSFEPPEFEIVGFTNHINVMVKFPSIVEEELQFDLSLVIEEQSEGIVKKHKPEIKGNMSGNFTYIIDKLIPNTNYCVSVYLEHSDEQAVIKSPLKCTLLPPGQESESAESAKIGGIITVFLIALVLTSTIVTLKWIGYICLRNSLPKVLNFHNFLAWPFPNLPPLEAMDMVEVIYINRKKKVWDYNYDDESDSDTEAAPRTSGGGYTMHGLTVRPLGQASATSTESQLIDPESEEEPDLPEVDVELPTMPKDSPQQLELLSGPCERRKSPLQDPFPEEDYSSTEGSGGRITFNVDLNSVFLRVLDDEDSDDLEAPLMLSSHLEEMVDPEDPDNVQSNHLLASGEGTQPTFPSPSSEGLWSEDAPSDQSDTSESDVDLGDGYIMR
# Assay Comment: IFNα-induced pSTAT-3 in human whole blood
# Test Parameters: mean
Measure: pIC50
The meaning of pIC50 here: minus log10 of the concentration in molar units.

Given the entry CC(C)(O)CNC(=O)Cc1nc2cnc3[nH]ccc3c2n1[C@H]1CC[C@H](CC#N)CC1 , report its measured pIC50.
6.98

###

# Assay Comment: Tissue distribution in rats after oral administration
# Format: in vivo, male Sprague-Dawley rats
# Test Parameters: male, Sprague-Dawley, rat, colon lumen content, PO 25 mg/kg, 0.5 h, average, N = 3, read-out: Colon Content concentration
Measure: concentration at 0.5 h (ng/mL)
Supply the numeric figure in ng/mL, leaving out any unit text.

Given the entry CC(C)(O)CNC(=O)Cc1nc2cnc3[nH]ccc3c2n1[C@H]1CC[C@H](CC#N)CC1 [Compound of Formula I] , report its measured concentration at 0.5 h.
167

###

# Assay Comment: Tissue distribution in rats after oral administration
# Type: in vivo, male Sprague-Dawley rats
# Test Parameters: male, Sprague-Dawley, rat, jejunum lumen content, PO 25 mg/kg, 24 h, average, N = 3, read-out: Jejunum Content concentration
Measure: concentration at 24 h (ng/mL)
Supply the numeric figure in ng/mL, leaving out any unit text.

Given the entry CC(C)(O)CNC(=O)Cc1nc2cnc3[nH]ccc3c2n1[C@H]1CC[C@H](CC#N)CC1 , report its measured concentration at 24 h.
228
